System: human A549 cells
assay method text: Inhibition test of PGE2 production using human A549 cells
Format: cell-based
condition set: IL-1β stimulated A549 cells, 24 h, PGE2 by HTRF, read-out: A549 cell inhibition of PGE2 production IC50
Exam item: assign met to entries whose IC50 is below 10 nM and not met to entries at or above 10 nM. Note that a value of exactly 10 nM receives not met.

O=C(Nc1cccc2c1cnn2-c1cccc(C(F)(F)F)c1)c1cc(CNC(=O)C2(O)CC2)ccc1Cl : met

Now for a further compound.
Ask | Record CC(C)(C)CC(=O)NCc1ccc(Cl)c(C(=O)Nc2cccc3c2cnn3-c2ccc(Cl)cc2)c1 : is its IC50 strictly below 10 nM?
Reply | met
